# ASSAY SYSTEM: Signal transducer and activator of transcription 1-alpha/beta (Homo sapiens, UniProt P42224)
# Sequence (P42224 whole entry): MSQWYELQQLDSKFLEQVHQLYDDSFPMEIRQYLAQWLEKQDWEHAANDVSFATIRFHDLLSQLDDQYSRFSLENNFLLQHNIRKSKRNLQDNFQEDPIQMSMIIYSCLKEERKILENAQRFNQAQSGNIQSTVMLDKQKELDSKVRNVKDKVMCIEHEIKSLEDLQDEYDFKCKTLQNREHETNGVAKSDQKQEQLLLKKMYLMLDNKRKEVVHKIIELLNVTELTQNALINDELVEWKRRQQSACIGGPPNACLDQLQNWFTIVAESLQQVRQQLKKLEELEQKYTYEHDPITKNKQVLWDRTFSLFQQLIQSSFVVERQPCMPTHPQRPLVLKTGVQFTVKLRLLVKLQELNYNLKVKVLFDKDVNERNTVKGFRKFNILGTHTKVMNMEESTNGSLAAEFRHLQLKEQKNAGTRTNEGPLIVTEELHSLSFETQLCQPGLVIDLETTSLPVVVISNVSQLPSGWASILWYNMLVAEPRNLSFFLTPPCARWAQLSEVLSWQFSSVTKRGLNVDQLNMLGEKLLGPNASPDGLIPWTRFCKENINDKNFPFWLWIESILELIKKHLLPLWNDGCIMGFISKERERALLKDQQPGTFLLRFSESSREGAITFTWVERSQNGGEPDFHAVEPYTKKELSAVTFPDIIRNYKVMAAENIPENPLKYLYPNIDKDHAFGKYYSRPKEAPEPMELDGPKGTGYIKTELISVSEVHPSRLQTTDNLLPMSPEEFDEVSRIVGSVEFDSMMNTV
pIC50: −log10 of the molar value.
ASSAY METRIC: pIC50

Qu. # pIC50 lookup, item Cc1ccc(S(=O)(=O)OCC(=O)Nc2ccc(C(=O)O)c(O)c2)cc1
Ans. < 3.52
